tested on: PSMA^+ PC-3 PIP tumors; test: MicroPET/CT imaging of mice transplanted with prostate cancer cell lines; type: in vivo, nude mouse; settings: 30 min after injection
Assignment: determine reported intake of mouse organ: Liver for the given compounds.
State the value, then name its unit.

Solved cases below.
# Compound, Assay Result
measured = [
    ("Cc1ccc(CCCC(=O)NCCCCC(NC(=O)CN2CCN3CCN4CCN(CC2)CC(=O)[O][68Ga]([O]C(=O)C3)[O]C(=O)C4)C(=O)NCCOCCOCC(=O)N(CCCCC(NC(=O)NC(CCC(=O)O)C(=O)O)C(=O)O)CC(=O)O)cc1 (stereo not shown) [[^68Ga]1g]", "6.10 ± 0.50 % ID/g"),
    ("O=C(O)CCC(NC(=O)NC(CCCCN(CC(=O)O)C(=O)COCCOCCNC(=O)C(CCCCNC(=O)CCCc1ccc(I)cc1)NC(=O)CN1CCN2CCN3CCN(CC1)CC(=O)[O][68Ga]([O]C(=O)C2)[O]C(=O)C3)C(=O)O)C(=O)O (stereo not shown) [[^68Ga]1h]", "10.37 ± 0.12 % ID/g"),
    ("O=C(O)CCC(NC(=O)NC(CCCCN(CC(=O)O)C(=O)COCCNC(=O)C(CCCCNC(=O)CCCc1ccc(I)cc1)NC(=O)CN1CCN2CCN3CCN(CC1)CC(=O)[O][68Ga]([O]C(=O)C2)[O]C(=O)C3)C(=O)O)C(=O)O (stereo not shown) [[^68Ga]1k]", "10.04 ± 2.73 % ID/g"),
]

Attention now turns to another entry.
Please report the recorded intake of mouse organ: Liver for O=C(O)CCC(NC(=O)NC(CCCCN(CC(=O)O)C(=O)COCCOCCNC(=O)CN1CCN2CCN3CCN(CC1)CC(=O)[O][68Ga]([O]C(=O)C2)[O]C(=O)C3)C(=O)O)C(=O)O (stereo not shown) [[^68Ga]1e] . 1.29 ± 0.05 % ID/g

* * *

Can you tell me intake of mouse organ: Kidney for the items I'm about to list?
system: PSMA^+ PC-3 PIP tumors; test: MicroPET/CT imaging of mice transplanted with prostate cancer cell lines; type: in vivo, nude mouse; conditions: 60 min after injection
Answers are plain numbers, in % ID/g.

# Compound, System Under Test, Assay Result
records = [
    ("O=C(O)CCC(NC(=O)NC(CCCCN(CC(=O)O)C(=O)COCCNC(=O)C(CCCCNC(=O)CCCc1ccc(I)cc1)NC(=O)CN1CCN2CCN3CCN(CC1)CC(=O)[O][68Ga]([O]C(=O)C2)[O]C(=O)C3)C(=O)O)C(=O)O (stereo not shown) [[^68Ga]1k]", "PSMA^+ PC-3 PIP tumors", 10.96),
    ("Cc1ccc(CCCC(=O)NCCCCC(NC(=O)CN2CCN3CCN4CCN(CC2)CC(=O)[O][68Ga]([O]C(=O)C3)[O]C(=O)C4)C(=O)NCCOCCOCC(=O)N(CCCCC(NC(=O)NC(CCC(=O)O)C(=O)O)C(=O)O)CC(=O)O)cc1 (stereo not shown) [[^68Ga]1g]", "PSMA^+ PC-3 PIP tumors", 25.78),
    ("O=C(O)CCC(NC(=O)NC(CCCCN(CC(=O)O)C(=O)COCCOCCNC(=O)C(CCCCNC(=O)CCCc1ccc(I)cc1)NC(=O)CN1CCN2CCN3CCN(CC1)CC(=O)[O][68Ga]([O]C(=O)C2)[O]C(=O)C3)C(=O)O)C(=O)O (stereo not shown) [[^68Ga]1h]", "PSMA^+ PC-3 PIP tumors", 13.60),
]

Now consider a different compound.
Data request, read-out intake of mouse organ: Kidney, for O=C(O)CCC(NC(=O)NC(CCCCN(CC(=O)O)C(=O)COCCOCCNC(=O)CN1CCN2CCN3CCN(CC1)CC(=O)[O][68Ga]([O]C(=O)C2)[O]C(=O)C3)C(=O)O)C(=O)O (stereo not shown) [[^68Ga]1e] 15.72

* * *

tested on: PSMA^+ PC-3 PIP tumors; assay: MicroPET/CT imaging of mice transplanted with prostate cancer cell lines; assay type: in vivo, nude mouse; conditions: 30 min after injection
Measured Parameter: intake of mouse organ: Kidney (% ID/g)
Give bare numbers, in % ID/g.

# Compound, Assay Result
rows = [
    ("O=C(O)CCC(NC(=O)NC(CCCCN(CC(=O)O)C(=O)COCCOCCNC(=O)C(CCCCNC(=O)CCCc1ccc(I)cc1)NC(=O)CN1CCN2CCN3CCN(CC1)CC(=O)[O][68Ga]([O]C(=O)C2)[O]C(=O)C3)C(=O)O)C(=O)O (stereo not shown) [[^68Ga]1h]", 12.61),
    ("O=C(O)CCC(NC(=O)NC(CCCCN(CC(=O)O)C(=O)COCCOCCNC(=O)CN1CCN2CCN3CCN(CC1)CC(=O)[O][68Ga]([O]C(=O)C2)[O]C(=O)C3)C(=O)O)C(=O)O (stereo not shown) [[^68Ga]1e]", 10.88),
    ("O=C(O)CCC(NC(=O)NC(CCCCN(CC(=O)O)C(=O)COCCNC(=O)C(CCCCNC(=O)CCCc1ccc(I)cc1)NC(=O)CN1CCN2CCN3CCN(CC1)CC(=O)[O][68Ga]([O]C(=O)C2)[O]C(=O)C3)C(=O)O)C(=O)O (stereo not shown) [[^68Ga]1k]", 10.89),
]

Turning now to a further compound:
Which intake of mouse organ: Kidney reading was recorded for the compound Cc1ccc(CCCC(=O)NCCCCC(NC(=O)CN2CCN3CCN4CCN(CC2)CC(=O)[O][68Ga]([O]C(=O)C3)[O]C(=O)C4)C(=O)NCCOCCOCC(=O)N(CCCCC(NC(=O)NC(CCC(=O)O)C(=O)O)C(=O)O)CC(=O)O)cc1 (stereo not shown) [[^68Ga]1g] ? 21.18

* * *

system: PSMA^+ PC-3 PIP tumors; experiment: MicroPET/CT imaging of mice transplanted with prostate cancer cell lines; assay type: in vivo, nude mouse; conditions: 50 min after injection
For each entry below, report its intake of mouse organ: Liver value.
Answers are plain numbers, in % ID/g.

# Molecule, Assay Result
rows = [
    ("O=C(O)CCC(NC(=O)NC(CCCCN(CC(=O)O)C(=O)COCCOCCNC(=O)C(CCCCNC(=O)CCCc1ccc(I)cc1)NC(=O)CN1CCN2CCN3CCN(CC1)CC(=O)[O][68Ga]([O]C(=O)C2)[O]C(=O)C3)C(=O)O)C(=O)O (stereo not shown) [[^68Ga]1h]", 7.83),
    ("Cc1ccc(CCCC(=O)NCCCCC(NC(=O)CN2CCN3CCN4CCN(CC2)CC(=O)[O][68Ga]([O]C(=O)C3)[O]C(=O)C4)C(=O)NCCOCCOCC(=O)N(CCCCC(NC(=O)NC(CCC(=O)O)C(=O)O)C(=O)O)CC(=O)O)cc1 (stereo not shown) [[^68Ga]1g]", 4.75),
]

Answer for every listed entry: what is its intake of mouse organ: Liver? The entries follow.
1. O=C(O)CCC(NC(=O)NC(CCCCN(CC(=O)O)C(=O)COCCOCCNC(=O)CN1CCN2CCN3CCN(CC1)CC(=O)[O][68Ga]([O]C(=O)C2)[O]C(=O)C3)C(=O)O)C(=O)O (stereo not shown) [[^68Ga]1e]
2. O=C(O)CCC(NC(=O)NC(CCCCN(CC(=O)O)C(=O)COCCNC(=O)C(CCCCNC(=O)CCCc1ccc(I)cc1)NC(=O)CN1CCN2CCN3CCN(CC1)CC(=O)[O][68Ga]([O]C(=O)C2)[O]C(=O)C3)C(=O)O)C(=O)O (stereo not shown) [[^68Ga]1k]

1: 0.80; 2: 8.73

* * *

system: PSMA^+ PC-3 PIP tumors; assay: MicroPET/CT imaging of mice transplanted with prostate cancer cell lines; assay type: in vivo, nude mouse; conditions: 60 min after injection
Measured Parameter: intake of mouse organ: Tumor (PIP) (% ID/g)
One number for each entry, in % ID/g.

# Compound, Assay Result
measured = [
    ("Cc1ccc(CCCC(=O)NCCCCC(NC(=O)CN2CCN3CCN4CCN(CC2)CC(=O)[O][68Ga]([O]C(=O)C3)[O]C(=O)C4)C(=O)NCCOCCOCC(=O)N(CCCCC(NC(=O)NC(CCC(=O)O)C(=O)O)C(=O)O)CC(=O)O)cc1 (stereo not shown) [[^68Ga]1g]", 8.29),
    ("O=C(O)CCC(NC(=O)NC(CCCCN(CC(=O)O)C(=O)COCCNC(=O)C(CCCCNC(=O)CCCc1ccc(I)cc1)NC(=O)CN1CCN2CCN3CCN(CC1)CC(=O)[O][68Ga]([O]C(=O)C2)[O]C(=O)C3)C(=O)O)C(=O)O (stereo not shown) [[^68Ga]1k]", 5.45),
    ("O=C(O)CCC(NC(=O)NC(CCCCN(CC(=O)O)C(=O)COCCOCCNC(=O)CN1CCN2CCN3CCN(CC1)CC(=O)[O][68Ga]([O]C(=O)C2)[O]C(=O)C3)C(=O)O)C(=O)O (stereo not shown) [[^68Ga]1e]", 4.73),
]

# evaluate next
What value of intake of mouse organ: Tumor (PIP) has been recorded for this entry: O=C(O)CCC(NC(=O)NC(CCCCN(CC(=O)O)C(=O)COCCOCCNC(=O)C(CCCCNC(=O)CCCc1ccc(I)cc1)NC(=O)CN1CCN2CCN3CCN(CC1)CC(=O)[O][68Ga]([O]C(=O)C2)[O]C(=O)C3)C(=O)O)C(=O)O (stereo not shown) [[^68Ga]1h] 7.90

Where do the numbers come from? From patent US11931431B2.
